Numbers sourced from patent US4940730A.

Listed here are compounds together with their documented ED50.
# Test system: hen's chlorioallantoic membrane
# PROTOCOL DESCRIPTION: CAM (Chorio Allantoic Membrane) assay
# Assay type: in vivo
# CONDITION SUMMARY: amount of drug which gave the numerical value 5 (positive rate) in CAM assay
Counter-ions that a name gives are not always drawn.

COMPOUND: CCCCCCCC/C=C\CCCCCCCCCCCCN [1-Amino-13-docosene.HCl]
TARGET: hen's chlorioallantoic membrane
READOUT UNIT: ug/disc
ED50: 0.94
--
COMPOUND: CCCCCCCCCCCCCCCCCCCCCCCCCC(=O)O [Cerotic acid]
TARGET: hen's chlorioallantoic membrane
READOUT UNIT: ug/disc
ED50: 2.75
--
COMPOUND: CCCCCCCCCCCCCCCCCCCC(N)=O [Arachidamide]
TARGET: hen's chlorioallantoic membrane
READOUT UNIT: ug/disc
ED50: 11.5
--
COMPOUND: CCCCCCCCC(O)C(O)CCCCCCCCCCCC(N)=O (stereo not drawn) [Erucamide, diOH, 13,14-dihydroxydocosanamide]
TARGET: hen's chlorioallantoic membrane
READOUT UNIT: ug/disc
ED50: 5.62
--
COMPOUND: CCCCC/C=C\C/C=C\C/C=C\C/C=C\CCCC(N)=O [Arachidonamide]
TARGET: hen's chlorioallantoic membrane
READOUT UNIT: ug/disc
ED50: 6.13
--
COMPOUND: CCCCCCCC/C=C\CCCCCCCC(=O)O [Oleic acid]
TARGET: hen's chlorioallantoic membrane
READOUT UNIT: ug/disc
ED50: 13.7
--
COMPOUND: CCCCC/C=C\C/C=C\C/C=C\C/C=C\CCCC(=O)O [Arachidonic acid]
TARGET: hen's chlorioallantoic membrane
READOUT UNIT: ug/disc
ED50: 3.64
--
COMPOUND: CCCCCCCCCCCCCCCCCCCCCC(N)=O [Behenamide]
TARGET: hen's chlorioallantoic membrane
READOUT UNIT: ug/disc
ED50: 2.76
--
COMPOUND: CCCCCCCCCCCCCCCCCCCC(=O)O [Arachidic acid]
TARGET: hen's chlorioallantoic membrane
READOUT UNIT: ug/disc
ED50: 4.00
--
COMPOUND: CCCCCCCC/C=C\CCCCCCCC(N)=O [Oleamide]
TARGET: hen's chlorioallantoic membrane
READOUT UNIT: ug/disc
ED50: 16.7
--
COMPOUND: CCCCC/C=C\C/C=C\CCCCCCCC(=O)O [Linoleic acid]
TARGET: hen's chlorioallantoic membrane
READOUT UNIT: ug/disc
ED50: 7.69
--
COMPOUND: CCCCCCCC/C=C\CCCCCCCCCCCC(=O)N(C)C [N,N-dimethyl]
TARGET: hen's chlorioallantoic membrane
READOUT UNIT: ug/disc
ED50: 5.41

----------
# Test system: hen's chlorioallantoic membrane
# PROTOCOL DESCRIPTION: CAM (Chorio Allantoic Membrane) assay
# Format: in vivo
# CONDITION SUMMARY: amount of drug which gave the numerical value 5 (positive rate) in CAM assay
Hi! Could you tag entries with ED50 below 3 ug/disc as criterion met, and those at or above as criterion not met? Much appreciated.

COMPOUND: CCCCCCCCCCCCCCCCCC(=O)O
ASSIGNED LABEL: criterion not met
//
COMPOUND: CCCCCCCC/C=C\CCCCCCCCCCCC(N)=O [Erucamide]
ASSIGNED LABEL: criterion met
//
COMPOUND: CCCCCCCC/C=C\CCCCCCCCCCCC(=O)N(CCO)CCO
ASSIGNED LABEL: criterion met
//
COMPOUND: CCCCCCCC/C=C\CCCCCCCCCCCC(=O)N1C(C(=O)O)CSC1c1ccncc1 (centres unmarked)
ASSIGNED LABEL: criterion met
//
COMPOUND: CCCCCCCC/C=C\CCCCCCCCCCCC(=O)NCC(=O)O
ASSIGNED LABEL: criterion not met

----------
Listed here are compounds together with their documented ED50.
# System: hen's chlorioallantoic membrane
# PROTOCOL DESCRIPTION: CAM (Chorio Allantoic Membrane) assay
# Assay type: in vivo
# CONDITION SUMMARY: amount of drug which gave the numerical value 5 (positive rate) in CAM assay
METRIC NAME: ED50 (ug/disc)

COMPOUND: CCCCCCCCC1OC1CCCCCCCCCCCC(N)=O (centres unmarked) [13,14-Epoxyerucamide]
TARGET: hen's chlorioallantoic membrane
READOUT UNIT: ug/disc
REPORTED MEASUREMENT: 2.22
//
COMPOUND: CCCCCCCCC(O)C(O)CCCCCCCCCCCC(=O)O (centres unmarked)
TARGET: hen's chlorioallantoic membrane
READOUT UNIT: ug/disc
REPORTED MEASUREMENT: 3.45
//
COMPOUND: CCCCCCCC/C=C\CCCCCCCCCCCC(=O)N1CCC[C@H]1C(=O)OC
TARGET: hen's chlorioallantoic membrane
READOUT UNIT: ug/disc
REPORTED MEASUREMENT: 4.00
//
COMPOUND: CCCCCCCCCCCCCCCCCCCCCCO
TARGET: hen's chlorioallantoic membrane
READOUT UNIT: ug/disc
REPORTED MEASUREMENT: 2.55
//
COMPOUND: CCCCCCCCCCCCCCCCCC(N)=O [Stearamide]
TARGET: hen's chlorioallantoic membrane
READOUT UNIT: ug/disc
REPORTED MEASUREMENT: 2.63
//
COMPOUND: CCCCCCCC/C=C\CCCCCCCCCCCC(=O)Nc1cccc(C(=O)O)c1
TARGET: hen's chlorioallantoic membrane
READOUT UNIT: ug/disc
REPORTED MEASUREMENT: 1.28
//
COMPOUND: CCCCCCCC/C=C\CCCCCCCCCCCC(=O)Nc1ccc(Cl)cc1C(=O)O
TARGET: hen's chlorioallantoic membrane
READOUT UNIT: ug/disc
REPORTED MEASUREMENT: 2.70
//
COMPOUND: CCCCCCCCCCCCCCCC(=O)O
TARGET: hen's chlorioallantoic membrane
READOUT UNIT: ug/disc
REPORTED MEASUREMENT: 14.5
//
COMPOUND: CCCCCCCC/C=C\CCCCCCCCCCCC(=O)NC [N-methyl, N-methyl erucamide]
TARGET: hen's chlorioallantoic membrane
READOUT UNIT: ug/disc
REPORTED MEASUREMENT: 2.90
//
COMPOUND: CCCCCCCC/C=C\CCCCCCCCCCCCCC(=O)O
TARGET: hen's chlorioallantoic membrane
READOUT UNIT: ug/disc
REPORTED MEASUREMENT: 2.75
//
COMPOUND: C=CCCCCCCCCCCCCCCCCCCCC
TARGET: hen's chlorioallantoic membrane
READOUT UNIT: ug/disc
REPORTED MEASUREMENT: 5.46
//
COMPOUND: CCCCCCCC/C=C/CCCCCCCCCCCC(N)=O [Brassidamide]
TARGET: hen's chlorioallantoic membrane
READOUT UNIT: ug/disc
REPORTED MEASUREMENT: 1.89
//
COMPOUND: CCCCCCCCCCCCCCCCCCCCCC[N+](C)(C)C [1-Trimethyammonio docosane bromide]
TARGET: hen's chlorioallantoic membrane
READOUT UNIT: ug/disc
REPORTED MEASUREMENT: 4.00
//
COMPOUND: CCCCCCCC/C=C/CCCCCCCCCCCC(=O)O
TARGET: hen's chlorioallantoic membrane
READOUT UNIT: ug/disc
REPORTED MEASUREMENT: 1.82
//
COMPOUND: CCCCCCCC/C=C\CCCCCCCCCCCC(=O)O
TARGET: hen's chlorioallantoic membrane
READOUT UNIT: ug/disc
REPORTED MEASUREMENT: 4.69
//
COMPOUND: CCCCCCCCC1OC1CCCCCCCCCCCCO (centres unmarked)
TARGET: hen's chlorioallantoic membrane
READOUT UNIT: ug/disc
REPORTED MEASUREMENT: 5.18
//
COMPOUND: CCCCCCCCCCCCCCCCCCCCCCCC(=O)O
TARGET: hen's chlorioallantoic membrane
READOUT UNIT: ug/disc
REPORTED MEASUREMENT: 4.61
//
COMPOUND: CCCCCCCCCCCCCC(=O)O
TARGET: hen's chlorioallantoic membrane
READOUT UNIT: ug/disc
REPORTED MEASUREMENT: 25.0
//
COMPOUND: CCCCCCCCCCCCCCCC(N)=O [Palmitamide]
TARGET: hen's chlorioallantoic membrane
READOUT UNIT: ug/disc
REPORTED MEASUREMENT: 15.6
//
COMPOUND: CCCCCCCC/C=C\CCCCCCCCCCCCO
TARGET: hen's chlorioallantoic membrane
READOUT UNIT: ug/disc
REPORTED MEASUREMENT: 2.15
